Where do the numbers come from? From patent US10738041B2.

target: human Fpn-GFP fusion (Homo sapiens); construct: expressed in transfected cells; host or cells: HEK-293 cell line #354 (derivative of HEK-293 Tet-ON Advanced, Clontech); assay: Ferroportin Internalization and Degradation Assay (FACS); type: cell-based; conditions: average of multiple measurements; Fpn-GFP MFI, HEK-293 cell line #354, FACS
Sequence (Q9NP59 whole entry, the tested form may be a part): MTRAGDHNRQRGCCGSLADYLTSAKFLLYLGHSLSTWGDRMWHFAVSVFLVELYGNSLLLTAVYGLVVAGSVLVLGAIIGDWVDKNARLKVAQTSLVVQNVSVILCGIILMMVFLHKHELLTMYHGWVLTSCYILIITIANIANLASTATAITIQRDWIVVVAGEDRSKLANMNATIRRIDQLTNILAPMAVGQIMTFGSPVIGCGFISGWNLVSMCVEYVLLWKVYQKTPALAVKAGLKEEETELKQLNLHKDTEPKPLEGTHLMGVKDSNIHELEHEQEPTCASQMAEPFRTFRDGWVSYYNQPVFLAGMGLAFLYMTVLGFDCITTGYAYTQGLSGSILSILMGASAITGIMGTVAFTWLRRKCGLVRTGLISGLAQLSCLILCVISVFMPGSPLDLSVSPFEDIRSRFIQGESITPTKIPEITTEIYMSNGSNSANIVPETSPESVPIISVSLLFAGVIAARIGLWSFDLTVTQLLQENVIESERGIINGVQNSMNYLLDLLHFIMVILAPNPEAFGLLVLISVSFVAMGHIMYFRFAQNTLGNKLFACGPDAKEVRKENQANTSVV
Structures can show the parent of a compound that is named as a salt.
metric.name: pEC50
The quantity pEC50 is defined as the negative base-10 logarithm of the molar concentration.

Below, each entry is followed by its recorded pEC50 result.
1. O=C(NCc1ncccc1Cl)c1cnn(CCNCCc2nc3ccccc3[nH]2)c1 : 7.37
2. O=C(NCc1ncc(F)cc1F)c1csc(CCNCCc2nc3ccccc3[nH]2)n1 : 6.23
3. O=C(NCc1ncccc1F)c1csc([C@H]2[C@@H]3CN(Cc4nc5ccccc5[nH]4)C[C@@H]32)n1 [Example Compound No. 213, Trihydrochloride] : 5.38
4. O=C(NCc1ncccc1F)c1cnn(CCNCCc2nc3ccccc3[nH]2)c1 : 7.12
5. O=C(NCc1ncccc1Cl)c1cnn(CCNCc2nc3ccccc3[nH]2)c1 : 6.17
6. Cc1oc(CCNCCc2nc3ccccc3[nH]2)nc1C(=O)NCc1ncccc1F : 6.02

Next item in the queue.
What value of pEC50 on human Fpn-GFP fusion (Homo sapiens) does O=C(NCc1ncccc1F)c1cnn(C2CN(Cc3nc4ccccc4[nH]3)C2)c1 have?
4.75
